src = PubChem BioAssay AID463212

- experimental_details: growth inhibitors of tim23-1 mutant yeast, primary screen, luminescence, uHTS (AID 463212);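 note: temperature-sensitive mutant grown at 25 °C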
- condition_summary: S. cerevisiae tim23-1 growth, BacTiter-Glo luminescence, 24 h; at 20 µM
Out of some 330,000 compounds screened, about 4,400 (1.3%) were called active.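 Rule for the calls: active = growth inhibition of the mutant yeast at or above 50%; inactive = the rest.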 The full list was thinned out, with actives kept by preference.
Respond with a class label; see active, inactive

Ask: Hi, do you know how CCOCCCNC(=O)Cc1cc(=O)[nH]c(=O)[nH]1 came out in this test?
Result: inactive

Ask: Hi, do you know how CC(C)(C)c1ccc(C(=O)NNC(=O)Cc2ccccc2)cc1 came out in this test?
Result: inactive

Ask: Hi, do you know how C#CCOc1ccc(/C=C2/C(=O)ON=C2C)cc1OCC came out in this test?
Result: inactive

Ask: Hi, do you know how CC1=NOC(=O)/C1=C\c1ccccc1 came out in this test?
Result: inactive

Ask: Hi, do you know how COCCOC(=O)C1=C(C)N=c2s/c(=C\c3cccs3)c(=O)n2C1c1cccs1 (stereo unspecified) came out in this test?
Result: inactive

Ask: Hi, do you know how COc1cc(/C=C2\SC(=O)NC2=O)ccc1OCc1ccc(Cl)nc1 came out in this test?
Result: inactive

Ask: Hi, do you know how CN(C(=O)COC(=O)CNC(=O)C12CC3CC(CC(C3)C1)C2)c1ccccc1 came out in this test?
Result: inactive

Ask: Hi, do you know how CCOC(=O)C1=C(CSc2nccn2C)NC(=O)NC1c1ccc(OC)cc1 (stereo unspecified) came out in this test?
Result: inactive

Ask: Hi, do you know how COc1ccc(Nc2nc(N)nc(CSC(=S)N3CCC(C)CC3)n2)cc1 came out in this test?
Result: inactive

Ask: Hi, do you know how CN(C(=O)CC(NC(=O)c1ccccc1)(c1ccccc1)c1ccccc1)c1ccccc1 came out in this test?
Result: active

Ask: Hi, do you know how COc1ccc2nc(NC(=O)[C@@H]3CCCN3C(=O)c3cccs3)sc2c1 came out in this test?
Result: inactive
